Data provenance: patent US12122763B2

- assay-target: Androgen Receptor (AR) protein (Homo sapiens, UniProt P10275, T878A)
- Construct: endogenous in cells; host or cells: LNCaP
- Sequence (P10275 whole entry T878A): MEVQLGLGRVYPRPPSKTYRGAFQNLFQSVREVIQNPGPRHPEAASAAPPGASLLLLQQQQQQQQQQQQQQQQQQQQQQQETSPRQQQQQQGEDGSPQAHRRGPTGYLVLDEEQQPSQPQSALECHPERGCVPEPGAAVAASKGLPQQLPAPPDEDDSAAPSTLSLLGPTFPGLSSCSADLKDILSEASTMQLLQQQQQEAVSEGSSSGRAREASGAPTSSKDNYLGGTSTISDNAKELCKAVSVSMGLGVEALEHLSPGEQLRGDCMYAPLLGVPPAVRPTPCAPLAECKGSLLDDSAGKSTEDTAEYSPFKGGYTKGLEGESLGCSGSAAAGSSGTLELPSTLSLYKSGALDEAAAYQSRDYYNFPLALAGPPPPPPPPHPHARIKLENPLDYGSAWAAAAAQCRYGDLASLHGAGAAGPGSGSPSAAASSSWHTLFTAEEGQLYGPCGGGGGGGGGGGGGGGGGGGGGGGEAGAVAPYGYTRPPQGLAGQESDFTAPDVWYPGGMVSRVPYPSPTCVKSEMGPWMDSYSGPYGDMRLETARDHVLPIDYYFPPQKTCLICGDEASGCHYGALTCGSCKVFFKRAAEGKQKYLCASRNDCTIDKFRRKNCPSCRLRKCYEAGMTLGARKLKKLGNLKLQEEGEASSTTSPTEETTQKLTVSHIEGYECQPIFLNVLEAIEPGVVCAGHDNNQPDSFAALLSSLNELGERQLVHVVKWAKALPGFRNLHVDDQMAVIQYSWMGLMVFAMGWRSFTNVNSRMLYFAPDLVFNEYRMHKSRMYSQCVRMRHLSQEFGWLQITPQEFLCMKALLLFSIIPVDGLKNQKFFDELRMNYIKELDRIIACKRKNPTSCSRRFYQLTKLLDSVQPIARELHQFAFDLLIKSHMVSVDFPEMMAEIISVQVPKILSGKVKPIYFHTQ
- Sequence (Q96SW2 whole entry partner): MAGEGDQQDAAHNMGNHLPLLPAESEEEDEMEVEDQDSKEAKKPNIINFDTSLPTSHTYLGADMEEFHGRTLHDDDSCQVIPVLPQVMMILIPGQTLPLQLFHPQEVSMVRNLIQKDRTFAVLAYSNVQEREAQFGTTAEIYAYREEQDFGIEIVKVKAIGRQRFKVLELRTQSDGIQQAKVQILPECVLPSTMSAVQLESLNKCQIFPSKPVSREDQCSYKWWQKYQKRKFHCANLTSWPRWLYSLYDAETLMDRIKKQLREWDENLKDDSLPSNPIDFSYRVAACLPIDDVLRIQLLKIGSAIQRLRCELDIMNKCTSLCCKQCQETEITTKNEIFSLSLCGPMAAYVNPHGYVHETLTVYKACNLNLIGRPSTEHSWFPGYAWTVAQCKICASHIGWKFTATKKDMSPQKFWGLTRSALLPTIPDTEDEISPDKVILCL
- test-method-notes: Androgen Receptor (AR) protein degradation assay in LNCaP cells, western blotting
- Type: cell-based
- assay-context: 20 h, 1 μM compound
// reported inhibition at 1 µM per item
Only the number, expressed in %, is required.

compound	inhibition at 1 µM, %
N#Cc1ccc(N2CCC(C(=O)Nc3ccc(N4CCN(CCCCCOc5ccc6c(c5)C(=O)N(C5CCC(=O)NC5=O)C6=O)CC4)cn3)CC2)cc1C(F)(F)F (stereo not drawn) [Example 113]	87
N#Cc1ccc(N2CCC(C(=O)Nc3ccc(N4CCC(CN5CCC6(CC5)CN(c5ccc7c(c5)C(=O)N(C5CCC(=O)NC5=O)C7=O)C6)CC4)cn3)CC2)cc1Cl (stereo not drawn) [Example 64]	98.5

Would you kindly look at the next entry?
Sample N#Cc1ccc(N2CCC(C(=O)Nc3ccc(N4CC5(CCN(CC6CCN(c7ccc8c(c7)C(=O)N(C7CCC(=O)NC7=O)C8=O)CC6)CC5)C4)cn3)CC2)cc1C(F)(F)F (stereo not drawn) [Example 121] — what was its inhibition at 1 µM? 98

* * *

- assay-target: Androgen Receptor (AR) protein (Homo sapiens, UniProt P10275, T878A)
- Construct: endogenous in cells; host or cells: LNCaP
- test-method-notes: Androgen Receptor (AR) protein degradation assay in LNCaP cells, western blotting
- Assay type: cell-based
- assay-context: 20 h, 0.01 μM compound
// reported inhibition at 0.01 µM per item
Only the number, expressed in %, is required.

Example molecules with recorded inhibition at 0.01 µM:
molecule	inhibition at 0.01 µM, %
N#Cc1ccc(N2CCC(C(=O)Nc3ncc(N4CCC(CN5CCN(C[C@H]6CCN(c7ccc8c(c7)C(=O)N(C7CCC(=O)NC7=O)C8=O)C6)CC5)CC4)cn3)CC2)cc1C(F)(F)F (stereo partly drawn) [Example 158]	-7
N#Cc1ccc(N2CCC(C(=O)Nc3ccc(N4CCC(CN5CC(N6CCN(c7ccc8c(c7)C(=O)N(C7CCC(=O)NC7=O)C8=O)CC6)C5)CC4)cn3)CC2)cc1C(F)(F)F (stereo not drawn) [Example 77]	46
N#Cc1ccc(N2CCC(C(=O)Nc3ccc(N4CCC(CN5CCN(C6CCN(c7ccc8c(c7)CN(C7CCC(=O)NC7=O)C8=O)CC6)CC5)CC4)cn3)CC2)cc1C(F)(F)F (stereo not drawn) [Example 140]	87

Sample N#Cc1ccc(N2CCC(C(=O)Nc3ccc(N4CCN(C(=O)CCCCCNc5ccc6c(c5)C(=O)N(C5CCC(=O)NC5=O)C6=O)CC4)cn3)CC2)cc1C(F)(F)F (stereo not drawn) [Example 111] — what was its inhibition at 0.01 µM? 29

Would you mind doing N#Cc1ccc(N2CCC(C(=O)Nc3ccc(N4CCC(CN5CCN(CCOc6ccc7c(c6)C(=O)N(C6CCC(=O)NC6=O)C7=O)CC5)CC4)cn3)CC2)cc1C(F)(F)F (stereo not drawn) [Example 3] as well? 45

Would you mind doing N#Cc1ccc(N2CCC(C(=O)Nc3ccc(N4CCC(CN5CC6(CCN(c7ccc8c(=O)n(C9CCC(=O)NC9=O)nnc8c7)CC6)C5)CC4)cn3)CC2)cc1C(F)(F)F (stereo not drawn) [Example 52] as well? 50

Would you mind doing N#Cc1ccc(N2CCC(C(=O)Nc3ccc(N4CC(CN5CCN(C6CN(c7ccc8c(c7)C(=O)N(C7CCC(=O)NC7=O)C8=O)C6)CC5)C4)cn3)CC2)cc1C(F)(F)F (stereo not drawn) [Example 36] as well? 66

Would you mind doing N#Cc1ccc(N2CCC(C(=O)Nc3ccc(N4CCC(CN5CCN(CC6CCN(c7cccc8c7C(=O)N(C7CCC(=O)NC7=O)C8=O)CC6)CC5)CC4)cn3)CC2)cc1C(F)(F)F (stereo not drawn) [Example 13] as well? 59

Would you mind doing N#Cc1ccc(N2CCC(C(=O)Nc3ccc(N4CCC(CN5CCC6(CC5)CCN(c5ccc7c(c5)C(=O)N(C5CCC(=O)NC5=O)C7=O)CC6)CC4)cn3)CC2)cc1C(F)(F)F (stereo not drawn) [Example 68] as well? 66

Would you mind doing N#Cc1ccc(N2CCC(C(=O)Nc3ccc(N4CCC(CN5CCN(C6CCN(c7ccc8c(n7)CN(C7CCC(=O)NC7=O)C8=O)CC6)CC5)CC4)cn3)CC2)cc1C(F)(F)F (stereo not drawn) [Example 75] as well? 82

Would you mind doing N#Cc1ccc(N2CCC(C(=O)Nc3ccc(N4CCC(CN5CC6(CCN(c7ccc8c(c7)C(=O)N(C7CCC(=O)NC7=O)C8=O)CC6)C5)CC4)cn3)CC2)cc1C(F)(F)F (stereo not drawn) [Example 49] as well? 68
